biological target: BTK enzyme (recombinant full-length BTK, hBTK) (Homo sapiens); construct: recombinant protein from baculovirus-transfected Sf9 cells: full-length BTK, 6HIS-tag cleaved; 6HIS (cleaved yes); made in house; host or cells: baculovirus-transfected Sf9 cells; assay: BTK enzyme activity assay, LANCE TR-FRET; format: biochemical; conditions: 50 pM hBTK, 2 μM biotin-A5-peptide, 25 μM ATP; 60 min compound & enzyme incubation; read-out: IC50 BTK activity value
Sequence (Q06187 whole entry): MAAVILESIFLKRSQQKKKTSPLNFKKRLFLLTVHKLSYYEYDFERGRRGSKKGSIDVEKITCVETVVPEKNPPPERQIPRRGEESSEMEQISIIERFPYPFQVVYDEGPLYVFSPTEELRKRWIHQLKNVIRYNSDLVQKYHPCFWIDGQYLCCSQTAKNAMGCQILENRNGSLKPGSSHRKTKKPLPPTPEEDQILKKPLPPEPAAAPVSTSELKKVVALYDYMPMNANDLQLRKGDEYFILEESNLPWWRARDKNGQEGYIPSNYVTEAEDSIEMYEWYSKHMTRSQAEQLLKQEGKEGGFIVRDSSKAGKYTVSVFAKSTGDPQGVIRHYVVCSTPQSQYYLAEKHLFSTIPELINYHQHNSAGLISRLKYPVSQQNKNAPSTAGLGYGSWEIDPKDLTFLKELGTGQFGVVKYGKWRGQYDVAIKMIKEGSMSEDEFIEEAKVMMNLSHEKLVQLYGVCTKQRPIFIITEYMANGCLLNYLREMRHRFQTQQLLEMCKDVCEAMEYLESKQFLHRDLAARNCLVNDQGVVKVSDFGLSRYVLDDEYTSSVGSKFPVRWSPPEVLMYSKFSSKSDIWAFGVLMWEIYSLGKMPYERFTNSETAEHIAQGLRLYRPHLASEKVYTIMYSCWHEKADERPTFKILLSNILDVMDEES
Listed compounds paired with reported IC50
Reported metric: IC50 (nM)

{"Compound": "CC(=O)Oc1cc(C(=O)Nc2cc(C(F)(F)F)ccn2)ccc1-c1nc([C@@H]2CC[C@H]3CCC(=O)N3C2)n2ccnc(N)c12 [Example 155]", "Recorded measurement": 3.9}
{"Compound": "Cc1nsc(NC(=O)c2ccc(-c3nc([C@@H]4CC[C@H]5CCC(=O)N5C4)n4ccnc(N)c34)cc2)n1 [Example 176]", "Recorded measurement": 14.9}
{"Compound": "COc1cc(C(=O)Nc2cc(C(F)(F)F)ccn2)ccc1-c1nc([C@@H]2CC[C@H]3[C@@H](C)OC(=O)N3C2)n2ccnc(N)c12 [Example 89]", "Recorded measurement": 0.13}
{"Compound": "Nc1nccn2c([C@@H]3CC[C@H]4CCC(=O)N4C3)nc(-c3ccc(C(=O)Nc4cc(C(F)(F)F)ccn4)cc3OC3CCC3)c12 [Example 140]", "Recorded measurement": 4.6}
{"Compound": "C[C@H]1OC(=O)N2C[C@H](c3nc(-c4ccc(C(=O)Nc5cc(C6CC6)ccn5)cc4F)c4c(N)nccn34)CC[C@@H]12 [Example 32]", "Recorded measurement": 0.21}
{"Compound": "Cc1cc(C(=O)Nc2cc(C(F)(F)F)n(C)n2)ccc1-c1nc([C@@H]2CC[C@H]3CCC(=O)N3C2)n2ccnc(N)c12 [Example 186]", "Recorded measurement": 6.9}
